System: hRBCs (human red blood cells)
Test: Hemolytic activity
Details: three independent assays, two in parallel
Where no end group is shown, it is not given here.
Reported MHC (concentration of peptide that causes hemolysis of 50% of human red blood cells) values for a set of substances
Measure: MHC (concentration of peptide that causes hemolysis of 50% of human red blood cells)

                              substance  result_value
0    AKVVNKLTKGVAKLLK-NH2 [TP(i+4) 2&3]       >128 µM
1  ASVVKKLWKGVWKLLK-NH2 [TP(i+4) 1&2&5]       >128 µM
2  ASVVKKWTKGWAKLLK-NH2 [TP(i+4) 1&2&6]       >128 µM

###

System: Methicillin-resistant Staphylococcus aureus (MRSA) 43300
Conditions: Methicillin-resistant 43300
Where no end group is shown, it is not given here.
Measure: MIC, S. aureus 43300

In [3]: df
Out[3]:
                                  substance               measure  result_value
0        AKVVKKLTKGVAGLLK-NH2 [TP(i+4) 1&3]  MIC, S. aureus 43300       >128 µM
1  ASVVNKLTGGVAGLLK-NH2 [TP, reference compound]  MIC, S. aureus 43300       >128 µM
2      AKVVKKLTKGVAKLLK-NH2 [TP(i+4) 1&2&3]  MIC, S. aureus 43300       >128 µM
